meta.source: paper PMC9866191

Listing: inhibition at 10 µM of selected compounds
tested on: LOX IMVI; experiment: NCI-60 one-dose screen; type: cell-based; details: Homo sapiens, Melanoma panel, single dose 10^−5 M, read-out: Growth inhibition %
Could you give me the number in %? Just the number is fine.

Examples with their reported inhibition at 10 µM follow.
Fc1cccc(CNc2c3ccccc3nc3ccccc23)c1F	60.8
c1ccc(CCNc2c3ccccc3nc3ccccc23)cc1	82.4

I have this compound here, COc1ccccc1CNc1c2ccccc2nc2ccccc12 , and I need its recorded inhibition at 10 µM.
81.1

Give the measured inhibition at 10 µM of Fc1ccccc1CNc1c2ccccc2nc2ccccc12 .
73.9
